Data origin, for the record: ChEMBL document CHEMBL1201862

Record form. Attribute: GI50. Fill in for each entry.
Quick reminder: number only, in µM, skip the unit.

Task: API: value(readout=GI50, system=HCT-15) for record "c1cnc(N2CCN(Cc3c[nH]c4ccccc34)CC2)nc1"
Result: 72.9

Task: API: value(readout=GI50, system=HCT-15) for record COc1ccc(C2ON(c3ccccc3)CC=C2C)cc1 (stereo not given)
Result: 65.9

Task: API: value(readout=GI50, system=HCT-15) for record "C/C(CC(=O)Nc1ccc(Cl)c(Cl)c1)=N/NC(=O)C[n+]1ccccc1"
Result: 30.5

Task: API: value(readout=GI50, system=HCT-15) for record "CCN(CC)CCCNc1ccc([N+](=O)[O-])c2nc3ccccc3c(N)c12"
Result: 0.883

Task: API: value(readout=GI50, system=HCT-15) for record "CCOc1ccc2c(c1)c(=O)c1c(NCCN(CC)CC)ccc3nnn2c31"
Result: 16.9

Task: API: value(readout=GI50, system=HCT-15) for record "COc1ccccc1NC(=O)O/N=C(/Cl)C(C)C"
Result: 13.2

* * *

# Tested on: EKVX
# Method Notes: NCI tumour cell line growth inhibition, 48 h
Active and inactive are the calls of the source. Cut-off read from the data, not from the text of the source: active = GI50 up to about 1.1 µM and inactive = higher.
Record form. Attribute: GI50. Fill in for each entry.

Task: What does the record list as GI50 for CC1C(c2ccccc2)OP(=O)(OC(C#N)c2ccccc2)N1C (stereo unspecified) ?
Result: > 100 µM (inactive)

Task: What does the record list as GI50 for COc1ccc(-c2cc(C(O)C3CCCCN3)c3ccccc3n2)cc1 (stereo unspecified) ?
Result: 6.92 µM (inactive)

Task: What does the record list as GI50 for N#CC(/C(=N\NC(N)=S)C(=O)NC1C2CC3CC(C2)CC1C3)c1ccc(Cl)cc1 (stereo unspecified) ?
Result: > 100 µM (inactive)

Task: What does the record list as GI50 for C[C@@H](CC(O)C(O)C(C)(C)O)C1CCC23CC12CCC1[C@@]2(C)CCC(O)C(C)(C)C2CC(OC2OC(CO)C(O)C(O)C2O)[C@]13C (stereo partly specified) ?
Result: > 10 µM (inactive)

Task: What does the record list as GI50 for "CCOP(=O)(OCC)/C(F)=C/c1ccc(F)cc1" ?
Result: > 100 µM (inactive)

Task: What does the record list as GI50 for CC[N+]1(C)CCC(O)(/C=C/c2ccc(OC)cc2)C(C(=O)/C=C/c2ccc(OC)cc2)C1 (stereo unspecified) ?
Result: 28.6 µM (inactive)

Task: What does the record list as GI50 for "COc1ccc(C=O)cc1Oc1ccc(C[C@H]2c3c(cc(OC)c4c3Oc3cc5c(cc3O4)CCN(C)C5=O)CCN2C)cc1" ?
Result: 9.4 µM (inactive)

Task: What does the record list as GI50 for "Cc1cc2c(=O)cc(-c3ccc(C(=O)O)cc3)oc2c(C(N)=O)c1C" ?
Result: > 100 µM (inactive)

Task: What does the record list as GI50 for CC1NC(C(=O)O)Cc2cc(O)c(O)cc21 (stereo unspecified) ?
Result: > 100 µM (inactive)

Task: What does the record list as GI50 for "C=CCN1CCN([C@H](c2ccc(C(=O)N(CC)CC)cc2)c2cccc(OC)c2)CC1" ?
Result: > 25 µM (inactive)

Task: What does the record list as GI50 for "O=C1CCCCC/C1=C\c1ccccc1" ?
Result: > 100 µM (inactive)

Task: What does the record list as GI50 for CC(=O)OC(C(=O)NNC(=O)OC(C)(C)C)c1ccccc1 (stereo unspecified) ?
Result: > 100 µM (inactive)

Task: What does the record list as GI50 for "Cc1ccc(-c2c(C#N)c(-c3ccc(Cl)cc3)c(C#N)c(=O)n2NS(=O)(=O)c2ccc(C)cc2)cc1" ?
Result: 47.6 µM (inactive)

Task: What does the record list as GI50 for CN(CCC(=O)N1CC(CCl)c2ccc([N+](=O)[O-])cc21)CCC(=O)N1CC(CCl)c2ccc([N+](=O)[O-])cc21 (stereo unspecified) ?
Result: 12.7 µM (inactive)

Task: What does the record list as GI50 for "Fc1ccc2c3c([nH]c2c1)CCNC3" ?
Result: > 100 µM (inactive)

Task: What does the record list as GI50 for "CC(C(=O)[O-])S(=O)(=O)O.CCc1c2cc(OC)c(OC)cc2cc2c3cc(OC)c(OC)cc3cc[n+]12" ?
Result: 67.6 µM (inactive)

Task: What does the record list as GI50 for CN1[C@@H]2CCCC[C@H]2N(C)P1(=O)C(O)/C=C/c1ccccc1 (stereo partly specified) ?
Result: > 100 µM (inactive)

Task: What does the record list as GI50 for "O=C1CCNC/C1=C\c1ccccc1" ?
Result: > 100 µM (inactive)

Task: What does the record list as GI50 for "CC(=O)N(CCN1C(=O)c2ccccc2C1=O)CCN1C(=O)c2ccccc2C1=O" ?
Result: > 100 µM (inactive)

Task: What does the record list as GI50 for "O=c1c2cccnc2n2n1Cc1ccccc1C2" ?
Result: 71.3 µM (inactive)

Task: What does the record list as GI50 for "COc1ccc2c3ccc4c(c3n(C)c2c1)C(=O)c1ccccc1C4=O" ?
Result: > 100 µM (inactive)
